Target Of Assay: Human IP6K1 (Homo sapiens, UniProt Q92551)
Construct: GST (N, cleaved yes); made in house; host or cells: C43 E. coli, pGEX-6P-2
Sequence (Q92551 whole entry): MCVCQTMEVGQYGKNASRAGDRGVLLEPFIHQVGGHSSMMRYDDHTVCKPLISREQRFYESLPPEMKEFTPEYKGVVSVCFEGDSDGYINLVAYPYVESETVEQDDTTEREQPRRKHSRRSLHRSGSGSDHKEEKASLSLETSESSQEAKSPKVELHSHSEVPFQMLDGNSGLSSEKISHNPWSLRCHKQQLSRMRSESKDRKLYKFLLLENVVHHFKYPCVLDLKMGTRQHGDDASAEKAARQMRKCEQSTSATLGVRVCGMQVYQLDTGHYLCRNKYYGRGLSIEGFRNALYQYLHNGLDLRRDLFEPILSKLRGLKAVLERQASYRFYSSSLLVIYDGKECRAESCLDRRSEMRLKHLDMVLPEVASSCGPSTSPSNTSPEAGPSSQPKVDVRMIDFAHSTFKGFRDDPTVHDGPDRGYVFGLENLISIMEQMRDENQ
Assay Overview: IP6K1 high-throughput screen of the Sigma LOPAC (ADP-Glo Max, single point);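 further: final compound concentration 10µM in 5% DMSO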
Assay type: biochemical
Details: LOPAC single-point screen, Z-score against plate average and StDev
Assay Endpoint: Z-score
When you answer, write just the number.

Worked cases, Z-score given:
Br.CCCN(CCC)C1CCc2ccc(O)cc2C1 (racemic) [(±)-7-Hydroxy-DPAT hydrobromide]	-0.02275
C[C@@H]1OC[C@H](C[N+](C)(C)C)O1.[I-] [(+)-cis-Dioxolane iodide]	-0.01199
CN1CCc2cc(Cl)c(O)cc2[C@@H](c2ccccc2)C1.Cl [R(+)-SCH-23390 hydrochloride]	0.004461
CCOC(=O)[C@]12CC1/C(=N\O)c1ccccc1O2 (mixture of isomers) [CPCCOEt]	0.3325

Reported Z-score for `C[C@]12CC[C@@H](O)C[C@@H]1CC[C@@H]1[C@@H]2CC[C@]2(C)[C@@H](C(=O)CO)CC[C@@H]12` : what is it?
-0.0226

Cool, now CC(=O)O[C@H]1C[C@@]2(C)[C@@H](C[C@@H](O)[C@H]3[C@@]4(C)CC[C@@H](O)[C@@H](C)[C@@H]4CC[C@@]32C)/C1=C(\CCC=C(C)C)C(=O)[O-].[Na+] [Fusidic acid sodium]
0.1876

Same lookup for Cc1nc(N=Nc2ccc(S(=O)(=O)O)cc2S(=O)(=O)O)c(COP(=O)(O)O)c(C=O)c1O [PPADS] , please.
-0.08273

Consider next the molecule N#C/C(=C\c1ccc(O)c(O)c1)C(=O)NCCCc1ccccc1 [Tyrphostin AG 555] in the same way.
-0.04678

Try `Nc1ncnc2c1ncn2[C@@H]1O[C@H](COP(=O)(O)OP(=O)(O)OP(=O)(O)OP(=O)(O)OC[C@H]2O[C@@H](n3cnc4c(N)ncnc43)[C@H](O)[C@@H]2O)[C@@H](O)[C@H]1O` next.
0.05483

Continue with Oc1cccc2c(O)nccc12 [1,5-Isoquinolinediol]
0.02411

Please give the result for `Br.Br.N=C(N)SCCN` too.
0.282

Lookup CCCOc1ccccc1-c1nc2nn[nH]c2c(=O)[nH]1 [Zaprinast]
0.03384

Then this molecule: O=c1[nH]c(=O)n([C@H]2C[C@H](O)[C@@H](CO)O2)cc1/C=C/Br [(E)-5-(2-Bromovinyl)-2-deoxyuridine]
-0.004421
